Assay: Selectivity index, ratio of IC50 for rat L6 cells to IC50 for Plasmodium falciparum K1
Assay type: toxicity, cell-based
Details: read-out: Ratio IC50
Documented selectivity ratio across a set of compounds

SMI: CC1=N[C@H](C)Cc2c(-c3ccc(C(F)(F)F)cc3)ccc(O)c21
READOUT_RELATION: =
selectivity ratio: 210
//
SMI: CC1(C)Cc2c(Br)ccc(O)c2C=N1
READOUT_RELATION: >
selectivity ratio: 141
//
SMI: COc1cccc2c(-c3ccc(O)c4c3CC(C)(C)NC4)ccc(O)c12
READOUT_RELATION: =
selectivity ratio: 168
//
SMI: COc1cccc2c(-c3ccc(O)c4c3CC(C)(C)N=C4)ccc(OC(C)C)c12
READOUT_RELATION: >
selectivity ratio: 725
//
SMI: CC1=N[C@H](C)Cc2c(-c3ccc(Cl)cc3)ccc(O)c21
READOUT_RELATION: >
selectivity ratio: 188
//
SMI: CC1=N[C@H](C)Cc2c(-c3ccc4ccccc4c3)ccc(O)c21
READOUT_RELATION: =
selectivity ratio: 152
//
SMI: CC1=N[C@H](C)Cc2c(-c3ccc(C)cc3)ccc(O)c21
READOUT_RELATION: >
selectivity ratio: 229
//
SMI: COc1cccc2c(-c3ccc(O)c4c3CCN=C4)ccc(OC(C)C)c12
READOUT_RELATION: =
selectivity ratio: 227
//
SMI: COc1cccc2c(-c3ccc(O)c4c3CCNC4)ccc(O)c12
READOUT_RELATION: =
selectivity ratio: 152

* * *

Test system: L6
Assay: Cytotoxicity against rat L6 cells
Assay type: cell-based
pIC50: −log10 of the molar value.

SMI: COc1ccc(-c2ccc(C(F)(F)F)cc2)c2c1C(C)=N[C@H](C)C2
READOUT_RELATION: <
pIC50: 4.00

SMI: CC1=N[C@H](C)Cc2c(-c3cccc4ccccc34)ccc(O)c21
READOUT_RELATION: =
pIC50: 4.24

SMI: COc1ccc(Br)c2c1C(C)=N[C@H](C)C2
READOUT_RELATION: <
pIC50: 4.00

SMI: CC1(C)Cc2c(Br)ccc(O)c2C=N1
READOUT_RELATION: <
pIC50: 4.00

SMI: COc1ccc(-c2cccc3ccccc23)c2c1C(C)=N[C@H](C)C2
READOUT_RELATION: =
pIC50: 4.46

SMI: COc1ccc(-c2ccc(OC)c3ccccc23)c2c1C=NC(C)(C)C2
READOUT_RELATION: =
pIC50: 4.36

SMI: CC1=N[C@H](C)Cc2c(-c3ccc(O)cc3)ccc(O)c21
READOUT_RELATION: <
pIC50: 4.00

SMI: COc1cccc2c(-c3ccc(O)c4c3CCN=C4)ccc(O)c12
READOUT_RELATION: =
pIC50: 4.01

SMI: Oc1ccc(-c2ccc(O)c3ccccc23)c2c1C=NCC2
READOUT_RELATION: =
pIC50: 4.03

SMI: CC1=N[C@H](C)Cc2c(-c3ccc(C)cc3)ccc(O)c21
READOUT_RELATION: <
pIC50: 4.00

SMI: COc1cccc2c(-c3ccc(O)c4c3CC(C)(C)N=C4)ccc(OC(C)C)c12
READOUT_RELATION: <
pIC50: 4.00

SMI: COc1ccc(-c2ccccc2)c2c1C(C)=N[C@H](C)C2
READOUT_RELATION: =
pIC50: 4.23

SMI: COc1ccc(-c2ccc(O)cc2)c2c1C(C)=N[C@H](C)C2
READOUT_RELATION: <
pIC50: 4.00

SMI: COc1ccc(-c2ccc3ccccc3c2)c2c1C(C)=N[C@H](C)C2
READOUT_RELATION: =
pIC50: 4.14

SMI: COc1ccc(-c2ccc(C)cc2)c2c1C(C)=N[C@H](C)C2
READOUT_RELATION: <
pIC50: 4.00

SMI: CC1=N[C@H](C)Cc2c(-c3ccc4ccccc4c3)ccc(O)c21
READOUT_RELATION: =
pIC50: 4.14

SMI: COc1cccc2c(-c3ccc(O)c4c3CCNC4)ccc(O)c12
READOUT_RELATION: =
pIC50: 4.40

SMI: COc1cccc2c(-c3ccc(O)c4c3CC(C)(C)NC4)ccc(O)c12
READOUT_RELATION: =
pIC50: 4.43

SMI: COc1cccc2c(-c3ccc(O)c4c3CCN=C4)ccc(OC(C)C)c12
READOUT_RELATION: =
pIC50: 4.57

SMI: COc1ccc(-c2cccc(Cl)c2)c2c1C(C)=N[C@H](C)C2
READOUT_RELATION: =
pIC50: 4.42

SMI: CC1=N[C@H](C)Cc2c(-c3ccc(Cl)cc3)ccc(O)c21
READOUT_RELATION: <
pIC50: 4.00

SMI: COc1ccc(-c2ccc(Cl)cc2)c2c1C(C)=N[C@H](C)C2
READOUT_RELATION: =
pIC50: 4.25

SMI: COc1ccc(-c2ccc(OC)c3ccccc23)c2c1C=NCC2
READOUT_RELATION: =
pIC50: 4.46

Reference source for all entries: ChEMBL document CHEMBL1275325
